Please respond with reported thermal stability score for every item in the list.
test system: HeLa Kyoto; test: thermal stability score vs G1/S (z-score of summed log2 fold changes over temperatures); higher = more thermally stable than in G1/S; conditions: cell cycle stage: mitosis;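 further: synchronized HeLa Kyoto cells, proteins quantified by TMT10plex mass spectrometry, three biological replicates, mitosis taken 0.5 h after nocodazole release, G1/S directly after double thymidine block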
Give bare numbers.

Worked examples follow.
- SEQUENCE ENTRY: "MASSSGNDDDLTIPRAAINKMIKETLPNVRVANDARELVVNCCTEFIHLISSEANEICNKSEKKTISPEHVIQALESLGFGSYISEVKEVLQECKTVALKRRKASSRLENLGIPEEELLRQQQELFAKARQQQAELAQQEWLQMQQAAQQAQLAAASASASNQAGSSQDEEDDDDI [DR1]"
  NUMBER: -0.438
- SEQUENCE ENTRY: "METQLSNGPTCNNTANGPTTINNNCSSPVDSGNTEDSKTNLIVNYLPQNMTQEELKSLFGSIGEIESCKLVRDKITGQSLGYGFVNYIDPKDAEKAINTLNGLRLQTKTIKVSYARPSSASIRDANLYVSGLPKTMTQKELEQLFSQYGRIITSRILVDQVTGISRGVGFIRFDKRIEAEEAIKGLNGQKPPGATEPITVKFANNPSQKTNQAILSQLYQSPNRRYPGPLAQQAQRFRLDNLLNMAYGVKRFSPMTIDGMTSLAGINIPGHPGTGWCIFVYNLAPDADESILWQMFGPFGAVTNVKVIRDFNTNKCKGFGFVTMTNYDEAAMAIASLNGYRLGDRVLQVSFKTNKTHKA [ELAVL2]"
  NUMBER: -1.01
- SEQUENCE ENTRY: "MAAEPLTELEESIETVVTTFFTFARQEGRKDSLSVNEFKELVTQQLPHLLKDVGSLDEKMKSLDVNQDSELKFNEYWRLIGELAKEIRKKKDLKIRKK [S100A13]"
  NUMBER: -6.62

Value sought for every listed sequence: thermal stability score.
1. MLGIWTLLPLVLTSVARLSSKSVNAQVTDINSKGLELRKTVTTVETQNLEGLHHDGQFCHKPCPPGERKARDCTVNGDEPDCVPCQEGKEYTDKAHFSSKCRRCRLCDEGHGLEVEINCTRTQNTKCRCKPNFFCNSTVCEHCDPCTKCEHGIIKECTLTSNTKCKEEGSRSNLGWLCLLLLPIPLIVWVKRKEVQKTCRKHRKENQGSHESPTLNPETVAINLSDVDLSKYITTIAGVMTLSQVKGFVRKNGVNEAKIDEIKNDNVQDTAEQKVQLLRNWHQLHGKKEAYDTLIKDLKKANLCTLAEKIQTIILKDITSDSENSNFRNEIQSLV [FAS]
2. MASTSRLDALPRVTCPNHPDAILVEDYRAGDMICPECGLVVGDRVIDVGSEWRTFSNDKATKDPSRVGDSQNPLLSDGDLSTMIGKGTGAASFDEFGNSKYQNRRTMSSSDRAMMNAFKEITTMADRINLPRNIVDRTNNLFKQVYEQKSLKGRANDAIASACLYIACRQEGVPRTFKEICAVSRISKKEIGRCFKLILKALETSVDLITTGDFMSRFCSNLCLPKQVQMAATHIARKAVELDLVPGRSPISVAAAAIYMASQASAEKRTQKEIGDIAGVADVTIRQSYRLIYPRAPDLFPTDFKFDTPVDKLPQL [GTF2B]
3. MASVTRAVFGELPSGGGTVEKFQLQSDLLRVDIISWGCTITALEVKDRQGRASDVVLGFAELEGYLQKQPYFGAVIGRVANRIAKGTFKVDGKEYHLAINKEPNSLHGGVRGFDKVLWTPRVLSNGVQFSRISPDGEEGYPGELKVWVTYTLDGGELIVNYRAQASQATPVNLTNHSYFNLAGQASPNINDHEVTIEADTYLPVDETLIPTGEVAPVQGTAFDLRKPVELGKHLQDFHLNGFDHNFCLKGSKEKHFCARVHHAASGRVLEVYTTQPGVQFYTGNFLDGTLKGKNGAVYPKHSGFCLETQNWPDAVNQPRFPPVLLRPGEEYDHTTWFKFSVA [GALM]

Ans.
[-1.13, 4, -0.863]
